Assay: compound binding in COS7 lysate, probe aLAP1, primary screen, cell lysate, small-molecule microarray (AID 1124);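 also: lysate comes from COS7 cells expressing LAP1 and is applied at 0.3 µg/mL; score merges spot fluorescence near 667 nm with signal-to-noise over triplicate slides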
Settings: probe aLAP1, fluorescence, higher = more signal
assay readout: composite z-score
Number only, no unit.

Solved entries:
Query: Entry CC=CC(O)C1C=CC2C(=O)N(c3ccccc3)C(=O)C2N1Nc1ccc(C(C)C)cc1 (configuration not stated) has what composite z-score?
Result: 0.3

Query: Entry COCCCNC(=O)[C@@]1(CCC(=O)OC(C)(C)C)N=C(c2ccc(OCCCO)cc2)O[C@H]1c1ccccc1CN=[N+]=[N-] has what composite z-score?
Result: 1.53

Query: Entry C=C(COC)C(=O)CC[C@@H](OC(=O)c1cccnc1)c1ccc(CO)o1 has what composite z-score?
Result: 0.823

Query: Entry CCN(CC)c1ccc(N2CC=CC34O[C@@H]5/C=C\CCCOC(=O)C5[C@H]3C(=O)N(C(CO)C(C)C)[C@@H]4C2=O)cc1 (some centres not stated) has what composite z-score?
Result: -0.32

Query: Entry O=C1OCC=C[C@H]2OC34C=CCN(c5ccc(Cl)cc5)C(=O)[C@H]3N(CCCCCCO)C(=O)[C@@H]4[C@@H]12 (some centres not stated) has what composite z-score?
Result: 0.688

Next:
Query: Entry Cc1ccc(S[C@]2(C(=O)NC3CC3)CC(=O)N(Cc3ccccc3)[C@@H]2c2ccc(CO)cc2)cc1 has what composite z-score?
Result: 0.677

Query: Entry O=C(CCN1CCOCC1)c1cccc(O)c1 has what composite z-score?
Result: 0.629

Query: Entry CCCCC=C[C@@H](NC(=O)c1ccco1)c1ccccc1 has what composite z-score?
Result: -0.358

Query: Entry C[C@]1(C(=O)NCc2ccccc2)c2ccccc2C(=O)N(Cc2ccc(OC(F)(F)F)cc2)[C@H]1c1ccc(CO)cc1 has what composite z-score?
Result: 0.107

Query: Entry C=CC[C@@]1(C(=O)O)N=C(c2ccc(OCCCO)cc2)O[C@@H]1c1ccccc1N=[N+]=[N-] has what composite z-score?
Result: 0.906

Query: Entry O=C(O)[C@H]1C[C@H]2C(=O)NCC(=O)N2[C@H]1c1ccc(O)cc1 has what composite z-score?
Result: 0.0741

Query: Entry COc1ccc(C(=O)Nc2cccc(CN3C(=O)[C@]4(O[C@H](CC(=O)N5CCC[C@H]5CO)[C@@H]([Si](C)(C)c5ccc(OC)cc5)[C@@H]4C)c4ccccc43)c2)cc1 has what composite z-score?
Result: 0.276

###

Assay: small-molecule binders of probe aInhba, primary screen, biochemical, small-molecule microarray, 635/667 nm fluorescence (AID 1148);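 also: score merges 667nm spot fluorescence with signal-to-noise for antibody binding to printed compounds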
Settings: higher = more signal
assay readout: composite z-score
Number only, no unit.

Query: Entry Cc1ccc(S[C@]2(C(=O)NC3CC3)CC(=O)N(Cc3ccccc3)[C@@H]2c2ccc(CO)cc2)cc1 has what composite z-score?
Result: -0.0762

Query: Entry Cc1ccc(S[C@]2(C(=O)NCC(C)C)CC(=O)N(Cc3ccccc3)[C@@H]2c2ccc(CO)cc2I)cc1 has what composite z-score?
Result: 0.0422

Query: Entry N[C@@H](Cc1ccccc1)Cn1cc(-c2ccccc2)nn1 has what composite z-score?
Result: -0.0963

Turning now to a further record.
Query: Entry COCCOC(=O)N1C(=O)[C@@]2(c3cc(C#Cc4ccc(OC)cc4)ccc31)[C@H](C(=O)N1CCN(c3ncccn3)CC1)[C@H]1C(=O)O[C@H](c3ccccc3)[C@H](c3ccccc3)N1[C@@H]2c1ccc(O)cc1 has what composite z-score?
Result: -0.0762

###

Molecular target: Follistatin (Homo sapiens) (UniProt P19883)
Sequence (P19883 whole entry, looked up): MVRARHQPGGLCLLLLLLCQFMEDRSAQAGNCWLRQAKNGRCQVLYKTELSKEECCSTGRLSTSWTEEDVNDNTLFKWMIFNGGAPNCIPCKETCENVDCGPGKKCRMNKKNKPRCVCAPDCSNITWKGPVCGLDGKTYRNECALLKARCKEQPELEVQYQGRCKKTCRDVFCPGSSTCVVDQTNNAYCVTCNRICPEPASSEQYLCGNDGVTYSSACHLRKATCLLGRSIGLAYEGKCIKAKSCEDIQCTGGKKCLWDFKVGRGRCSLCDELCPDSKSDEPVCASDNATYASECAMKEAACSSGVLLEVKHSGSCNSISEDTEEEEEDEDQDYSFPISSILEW
Test: follistatin binders on small-molecule microarrays, primary screen, biochemical, small-molecule microarray, 635/667 nm fluorescence (AID 1132)
Conditions: FST binding, 635 nm fluorescence, higher = more signal
assay readout: composite z-score

Query: Entry CC(C)=CCCC(C)=CC(O)C1C=CC2C(=O)N(c3ccccc3)C(=O)C2N1Nc1ccccc1 (configuration not stated) has what composite z-score?
Result: 1.14

Query: Entry COCCOC(=O)N1C(=O)[C@@]2(c3cc(C#CCC(C(=O)OC)C(=O)OC)ccc31)[C@H](c1ccccc1OCCO)N1[C@H](c3ccccc3)[C@H](c3ccccc3)OC(=O)[C@H]1[C@@H]2C(=O)N1CCc2cc(OC)c(OC)cc2C1 has what composite z-score?
Result: 1.41

Query: Entry COC(=O)c1ccc(C(O)C2C=CC3C(=O)N(c4ccccc4)C(=O)C3N2Nc2ccc(C#N)cc2)o1 (configuration not stated) has what composite z-score?
Result: 0.62

Query: Entry [N-]=[N+]=NCc1ccccc1C[C@@]1(C(=O)NCC(O)CO)N=C(c2ccc(OCCCO)cc2)O[C@@H]1c1ccccc1CN=[N+]=[N-] (some centres not stated) has what composite z-score?
Result: 1.28

Query: Entry CC(C)CNC(=O)[C@@H]1c2ccccc2C(=O)N(Cc2cc(C(F)(F)F)cc(C(F)(F)F)c2)[C@H]1c1ccc(CO)cc1 has what composite z-score?
Result: -0.137

Next:
Query: Entry CCCCC=C[C@@H](NC(=O)c1ccc(C(=O)OC)cc1)c1ccccc1 has what composite z-score?
Result: 0.293

Query: Entry CCCN1C(=O)[C@@]2(CCC(=O)OC(C)(C)C)N=C(c3ccc(OCCCO)cc3)O[C@H]2c2ccccc21 has what composite z-score?
Result: 1.4

###

Test system: XIP peptide (Xip251-270)
Experiment: small-molecule binders of XIP peptide, primary screen, biochemical, small-molecule microarray, fluorescence 635/667 nm, 0.5 µg/mL protein (AID 1183)
Conditions: small-molecule microarray binding, fluorescence 635 nm; higher = more signal
composite z-score values for the compounds below.
Number only, no unit.

Query: Entry COCCOC(=O)N1C(=O)[C@@]2(c3cc(C#CCCO)ccc31)[C@H](C(=O)NC[C@H](O)c1ccccc1)[C@H]1C(=O)O[C@H](c3ccccc3)[C@H](c3ccccc3)N1[C@@H]2c1ccc(O)cc1 has what composite z-score?
Result: 0.692

Query: Entry CC(C)(C)N1CC=CC23O[C@@H]4/C=C\CCCOC(=O)C4[C@H]2C(=O)N(CCO)[C@@H]3C1=O (some centres not stated) has what composite z-score?
Result: 0.368

Query: Entry CC(C)(C)OC(=O)CC[C@]1(C(=O)N2CCCCC2)N=C(c2ccc(OCCCO)cc2)O[C@H]1c1ccccc1N=[N+]=[N-] has what composite z-score?
Result: 0.71

Next:
Query: Entry O=C1C=CC(=O)[C@@H]2CC(COc3ccccc3)=C3[C@@H](CCc4ccccc4)OB(O)C[C@@H]3[C@H]12 has what composite z-score?
Result: 0.433

Query: Entry COC(=O)[C@@]1(Cc2ccc(F)cc2)[C@H]2c3cc(C(=O)N4CCCC4)n(Cc4cccc5ccccc45)c3C[C@H]2CN1C(=O)c1ccccc1 has what composite z-score?
Result: 0.0322

Query: Entry CN(C)CCCNC(=O)[C@@]1(Cc2ccccc2I)c2ccccc2C(=O)N(Cc2ccccc2C(F)(F)F)[C@H]1c1ccc(CO)cc1 has what composite z-score?
Result: 0.514

Query: Entry O=C1OCC=C[C@H]2OC34C=CCN(c5ccc(Cl)cc5)C(=O)[C@H]3N(CCCCCCO)C(=O)[C@@H]4[C@@H]12 (some centres not stated) has what composite z-score?
Result: -1.03

###

Target: Carbonic anhydrase 2 (Homo sapiens) (UniProt P00918)
Assay: CAII small-molecule binders, profiling panel, biochemical, small-molecule microarray, Alexa647-labelled CAII (AID 1122)
Settings: CAII-A647 binding fluorescence, higher = more signal
composite z-score values for the compounds below.
Number only, no unit.

Solved entries:
Query: Entry C[N+](C)(C)CCCCCCNC(=O)[C@H]1C[C@H]2C(=O)N3CCC[C@H]3C(=O)N2[C@H]1c1ccc(O)cc1 has what composite z-score?
Result: 0.5

Query: Entry CCOC(=O)C[C@H]1[C@H](OC(=O)c2ccc(-c3ccccc3)cc2)[C@@H](NC(=O)c2ccc(-c3ccccc3)cc2)c2cc(OCCCO)ccc2N1C(=O)Cc1ccc(OC)cc1 has what composite z-score?
Result: -0.0968

Query: Entry CC(C)C[C@@H]1NC(=O)[C@H]2C[C@@H](C(=O)NCCCCCCNC(=O)CS)[C@@H](c3cccc(OCCO)c3)N2C1=O has what composite z-score?
Result: 0.338

Next:
Query: Entry Cc1ccc(S[C@]2(C(=O)NCC(C)C)CC(=O)N(Cc3ccccc3Cl)[C@@H]2c2ccc(CO)cc2)cc1 has what composite z-score?
Result: 0.738

###

Test system: Lefty1
Test: Lefty1 binders on small-molecule microarrays, primary screen, biochemical, small-molecule microarray, 635/667 nm fluorescence (AID 1139)
Conditions: small-molecule microarray binding, fluorescence 635/667; higher = more signal
composite z-score values for the compounds below.

Solved entries:
Query: What reported composite z-score corresponds to COCCOC(=O)N1C(=O)[C@@]2(c3cc(C#CCC(C(=O)OC)C(=O)OC)ccc31)[C@H](c1ccccc1OCCO)N1[C@H](c3ccccc3)[C@H](c3ccccc3)OC(=O)[C@H]1[C@@H]2C(N)=O on Lefty1?
Result: 0.714

Query: What reported composite z-score corresponds to CC(C)N1C(=O)[C@@]2(c3ccc([N+](=O)[O-])cc3)CC(=O)N(CC34CC5CC(CC(C5)C3)C4)[C@@H]2c2ccc(CO)cc21 on Lefty1?
Result: 0.0347

Turning now to a further record.
Query: What reported composite z-score corresponds to O=C1C2C=CC(C(O)c3ccc(-c4ccccc4)s3)N(n3cnnc3)C2C(=O)N1Cc1ccccc1 (stereo not drawn) on Lefty1?
Result: -0.69

Each recorded value in this set is attributed to PubChem BioAssay.
